protocol-details: NCI Yeast Anticancer Drug Screen. Data for the rad50 strain (AID 155);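 also: 0% = growth of vehicle-only cultures of the same strain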
experimental-conditions: S. cerevisiae rad50 strain growth inhibition; at 100.0 µM; hits give high values
The panel holds about 79,000 compounds, 15% with a hit somewhere; the sample as a whole holds those more often. Activity calls are given as the source filed them. Rule as the data show it: active = growth inhibition above about 70%; inactive = the rest.

{"columns": ["molecule", "growth inhibition"],
 "data": [
  ["O=C(Cc1ccccc1)NNc1nc(NNC(=O)c2ccncc2)nc(Nc2ccc(Cl)cc2)n1", "1% (inactive)"],
  ["CC1(C)CC(=O)C(/C=N/c2nc(-c3ccc(Br)cc3)cs2)=C(O)C1", "97% (active)"],
  ["CCN(CC)C(=S)N/N=C(\\C)c1ccccc1O", "99% (active)"],
  ["CC1(C)OC(=O)C(=Cc2ccc([N+](=O)[O-])s2)C(=O)O1", "98% (active)"],
  ["CC(/C=C/c1ccc([N+](=O)[O-])o1)=N/N1CC(CN2CCOCC2)OC1=O (stereo not given)", "97% (active)"]
]}

###

protocol-details: NCI Yeast Anticancer Drug Screen. Data for the wt2 strain (AID 169);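 also: 0% = growth of vehicle-treated yeast cultures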
experimental-conditions: S. cerevisiae wt2 strain growth inhibition; at 3.7 µM; hits give high values
This is part of a sample that, as a whole, favours compounds with a hit. Of some 79,000 tested, about 15% had one in any assay. Residues, ends and D or L forms follow the SMILES beside them. *: point of attachment. Fmoc = O=C(OCC1c2ccccc2-c2ccccc21)*; Boc = CC(C)(C)OC(=O)*
Reported growth inhibition is given for each of the following compounds.

{"columns": ["compound", "growth inhibition / %"],
 "data": [
  ["NC(=S)N1N=C2c3ccccc3CC[C@H]2[C@@H]1c1ccc(Cl)cc1", 14],
  ["CC(C)(C)OC(=O)NCCCCC(NC(=O)C(Cc1c[nH]c2ccccc12)NC(=O)OCC1c2ccccc2-c2ccccc21)C(=O)O (centres undefined) (Fmoc-Trp-Lys(Boc)-OH; configuration not given here)", -2],
  ["Cc1c2cc[n+](CCO)cc2c(C)c2c1[nH]c1ccc(O)cc12", -6],
  ["CCC(C)COC(=O)Nc1cccc(Cl)c1 (centres undefined)", -2],
  ["COC(=O)C(=O)CC(=O)c1cccc(OC)c1", 9],
  ["COC(=O)c1cnc(Cl)c([N+](=O)[O-])c1", 20],
  ["CC(=O)CC(c1ccccc1)c1c(O)c2ccccc2oc1=O (centres undefined)", -9],
  ["O=C(O)c1c2ccc(Cl)cc2nc2[nH]c(=O)[nH]c(=O)c12", -33],
  ["CCCCCCCC/C=C\\CCCCCCCCN", -1],
  ["ClCCCOc1c(Cl)cc(Cl)cc1Cl", 1],
  ["C=CCNC1=C2C[C@@H](C)C[C@H](OC)[C@H](O)[C@@H](C)/C=C(\\C)[C@H](OC(N)=O)[C@@H](OC)/C=C\\C=C(/C)C(=O)NC(=CC1=O)C2=O", -65],
  ["O=C1Nc2ccc(Br)cc2C1=Nc1cccnc1", -24],
  ["O=CC1(F)CC1(c1ccccc1)c1ccccc1 (centres undefined)", 6],
  ["CC(=O)O[C@H]1CC[C@@]2(C)C(=CC[C@@H]3C2CC[C@]2(C)C(=O)NC(=O)CC32)C1 (some centres undefined)", 19]
]}

###

protocol-details: NCI Yeast Anticancer Drug Screen. Data for the mec2-1 strain (AID 157)
experimental-conditions: S. cerevisiae mec2-1 strain, at 33.0 µM
About 79,000 compounds went through this panel and 15% of them were active in at least one assay; those are over-represented in the sample as a whole. Calls of active or inactive are those of the source. Cut-off read from the data, not from the text of the source: active = growth inhibition above about 70%; inactive = the rest.
Classes used: TRUE (active), FALSE (inactive)

{"columns": ["compound", "label-class"],
 "data": [
  ["N#CSCC1COc2ccccc2O1 (stereo unspecified)", "TRUE"],
  ["COC(=O)C(Cl)(Cl)N=Nc1c(Cl)cc(Cl)c(C)c1Cl", "TRUE"],
  ["NC(=S)N1N=C2c3ccccc3CC[C@@H]2[C@@H]1c1ccccc1", "FALSE"],
  ["NC(=S)N/N=C1\\c2ccccc2CCC1CCC1(O)CCc2ccccc2C1=O (stereo unspecified)", "FALSE"],
  ["CN(C)CC(CN(C)C)C(=O)/C=C/c1ccc(Cl)cc1Cl", "TRUE"],
  ["CCCCN(CCC#N)c1ccc(/C=C/c2ccnc3ccccc23)cc1", "FALSE"],
  ["Cc1cc(C)c(S(=O)(=O)c2ccc(Cl)cc2)c(C)c1", "FALSE"],
  ["CNC(=O)OCc1c(COC(=O)NC)c(C)n(-c2ccc(Br)cc2)c1C", "FALSE"],
  ["CO[C@@]1([C@@H](Cl)c2ccccc2)C(=O)N(C)/C(=C\\c2ccccc2)C(=O)N1C", "FALSE"],
  ["Cc1ccc(S(=O)(=O)N/N=C/C(Br)=C(/Br)C(=O)O)cc1", "TRUE"],
  ["c1ccc([P+](CCN2Cc3ccccc3C2)(c2ccccc2)c2ccccc2)cc1", "FALSE"]
]}
